Consider the following binders and their measured kon readings.
Target: T1, natural Fel d1 (Indoor Biotech, #NA-FD1-2) (cat, UniProt P30438 23-92; P30440 18-109)
T1 construct: Bought natural heterodimeric glycoprotein, chains linked by disulfide bonds; also called nFel d1; nFel d 1
T1 sequence (P30438 other isoform, or with tags, fused parts or gaps, chain 1 of 2): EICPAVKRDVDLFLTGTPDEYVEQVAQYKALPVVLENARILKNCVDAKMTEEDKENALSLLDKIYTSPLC
T1 sequence (P30440 18-109, chain 2 of 2): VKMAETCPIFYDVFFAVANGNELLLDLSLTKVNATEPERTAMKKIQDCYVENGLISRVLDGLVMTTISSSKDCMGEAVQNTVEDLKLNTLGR
Assay: SPR (Biacore), mAb captured, natural Fel d1 injected, 25 C;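 note: rate constants obtained by fitting association and dissociation phases to a one-to-one binding model, with Kd and half-life derived from those rate constants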
Report the value in M⁻¹ s⁻¹ with no unit label.

| binder | kon, M⁻¹ s⁻¹ |
| --- | --- |
| H4H2606B (antibody, human IgG4, V domains shown, human IgG4 Fc (H4H prefix)) VH: EVQLVESGGGLVKPGGSLRLSCAASGFTFSDYYMNWIRQAPGKGLEWVSYISSSGNSIYYADSVKGRFTISRDNAKNSLFLQMSSLRAEDTAVYYCARDGRYNDRRRGYYWGQGTLVTVSS VL: EIVMTQSPDFQSVTPKEKVTITCRASQSIGSSLHWYQQKPDQSPKLLIKYASQSFSGVPSRFSGSGSGTDFTLTINSLEAEDAATYYCLQSSSLRTFGQGTKVEIKR | 924000 |
| H4H2645P (antibody, human IgG4, V domains shown, human IgG4 Fc (H4H prefix)) VH: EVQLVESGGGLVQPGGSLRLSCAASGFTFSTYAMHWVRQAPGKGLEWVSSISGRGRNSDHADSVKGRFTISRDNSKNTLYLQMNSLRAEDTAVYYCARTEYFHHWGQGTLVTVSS VL: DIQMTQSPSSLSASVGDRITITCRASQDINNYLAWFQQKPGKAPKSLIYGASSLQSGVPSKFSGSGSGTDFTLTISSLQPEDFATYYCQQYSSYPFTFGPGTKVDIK | 569000 |

Next item in the queue.
Query :: Request the reported kon associated with H4H1616N (antibody, human IgG4, V domains shown, human IgG4 Fc (H4H prefix)) VH: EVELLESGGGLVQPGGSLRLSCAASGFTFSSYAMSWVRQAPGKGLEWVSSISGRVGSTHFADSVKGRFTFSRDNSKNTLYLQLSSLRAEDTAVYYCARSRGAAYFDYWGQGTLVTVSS VL: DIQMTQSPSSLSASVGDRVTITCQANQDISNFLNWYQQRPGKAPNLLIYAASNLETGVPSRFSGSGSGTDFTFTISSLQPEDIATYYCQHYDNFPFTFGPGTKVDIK
Result :: 241000
